Origin of the recorded values: paper PMC11859928

tested on: MDA-MB-435; experiment: NCI one-dose assay; assay type: cell-based; conditions: Homo sapiens, MDA-MB-435, Melanoma, read-out: Cell growth inhibition %
Rule: label 1 for inhibition at 10 µM not less than 60%, label 0 for anything less.

Check out these entries, answers already filled in.
COc1ccc(/C(CSc2nnc(-c3c[nH]c4ccccc34)n2-c2ccccc2)=N/O)cc1 [Compound 7g]: label 1
COc1ccc(C(=O)CSc2nnc(-c3c[nH]c4ccccc34)n2-c2ccccc2)cc1 [Compound 6g]: label 0
O=C(CSc1nnc(-c2c[nH]c3ccccc23)n1-c1ccccc1)c1ccccc1 [Compound 6f]: label 0

Is inhibition at 10 µM for C=CCn1c(SCC(=NO)c2ccc(OC)cc2)nnc1-c1c[nH]c2ccccc12 [Compound 7b] at or above 60%? label 0

Is inhibition at 10 µM for C=CCn1c(SCC(=O)c2ccc(OC)cc2)nnc1-c1c[nH]c2ccccc12 [Compound 6b] at or above 60%? label 0

Is inhibition at 10 µM for O/N=C(\CSc1nnc(-c2c[nH]c3ccccc23)n1-c1ccccc1)c1ccc(Br)cc1 [Compound 7i] at or above 60%? label 1
